- target-desc: T1, human PD-L1-Fc protein (human, UniProt Q9NZQ7 19-238)
- T1 construct: coating antigen of the ELISAs; also called rhPD-L1-Fc; not shown: Fc
- T1 sequence (Q9NZQ7 19-238 limits assumed): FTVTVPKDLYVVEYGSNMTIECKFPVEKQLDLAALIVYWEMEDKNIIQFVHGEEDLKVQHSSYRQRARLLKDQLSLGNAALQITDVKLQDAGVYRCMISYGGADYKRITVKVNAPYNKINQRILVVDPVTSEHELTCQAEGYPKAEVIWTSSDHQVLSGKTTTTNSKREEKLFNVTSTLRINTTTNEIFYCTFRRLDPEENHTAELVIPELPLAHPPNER
- experiment-description: ELISA, antibody titrated on coated human PD-L1-Fc, OD 450nm; lower left panel; the table row is headed 'IC50' on the sheet although the curves rise
Listing: EC50 of selected binders

binder	EC50, µg/mL
Hu67F3G7-15 (antibody, V domains shown, humanized) VH: EVQLVQSGAEVKKPGASVKVSCKASGYIFTDFWVSWVRQAPGKGLEWIGEIYPNSGVSRYNEKFKGRVTMTVDKSISTAYMELSRLRSDDTAVYYCTKYFGYTYWFGYWGQGTLVTVSS VL: DTVLTQSPSSLSASVGDRVTITCRASKSVSTYMHWYQQKPGKQPKLLIYSASHLESGVPSRFSGSGSGTDFTLTISSLQPEDFATYYCQQSNELPVTFGGGTKVEIK	0.0111
Hu67F3G7-17 (antibody, V domains shown, humanized) VH: EVQLVQSGAEVKKPGASVKVSCKASGYTFTDFWVSWVRQAPGQGLEWMGEIYPNSGVSRYNEKFKGRVTMTVDKSISTAYMELSRLRSDDTAVYYCTKYFGYTYWFGYWGQGTLVTVSS VL: DTVLTQSPSLSASVGDRVTITCRASKSVSTYMHWYQQKPGKQPKLLIYSASHLESGVPSRFSGSGSGTDFTLTISSLQPEDFATYYCQQSNELPVTFGGGTKVEIK	0.0136
Hu67F3G7-16 (antibody, V domains shown, humanized) VH: EVQLVQSGAEVKKPGASVKVSCKASGYTFTDFWVSWVRQAPGQGLEWMGEIYPNSGVSRYNEKFKGRVTMTVDKSISTAYMELSRLRSDDTAVYYCARYFGYTYWFGYWGQGTLVTVSS VL: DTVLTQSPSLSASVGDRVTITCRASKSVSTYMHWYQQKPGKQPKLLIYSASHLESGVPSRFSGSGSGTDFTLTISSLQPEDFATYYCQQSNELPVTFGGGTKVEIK	0.0114
